- System: 786-0 renal
- assay-summary: NCI tumour cell line growth inhibition, 48 h
I'd be grateful if you could share measured TGI for these entries.

Please review the entries below; each comes with its answer.
NC(=S)N/N=C1\CCCC1C(O)(C(F)(F)Cl)C(F)(F)Cl (stereo unspecified)    > 10 µM
O=C1CCN2CCC(=O)c3c2c(cc2ccccc32)N1    > 100 µM
O=C1/C(=C/c2ccc(O)cc2)CCC1CNc1ccccc1 (stereo unspecified)    18.9 µM
CC(=Nc1cc(Cl)cc(Cl)c1)c1ccncc1    > 100 µM
Cn1cc(C2=C(c3cn(C)c4cc(N)ccc34)C(=O)NC2=O)c2ccccc21    > 25 µM
CC1(C)C=[N+]([O-])C(C)(C)N1O    > 10 µM
Clc1ccc(-c2c(C3=NCCN3)nnn2-c2ccccc2)cc1    > 100 µM
COc1ccc(N2C(=O)C3c4[nH]c5ccccc5c4C4CCCCCCC4C3C2=O)cc1 (stereo unspecified)    8.29 µM

Give TGI for each of the items listed below.
1. C/C(=C(/c1ccc(O)cc1)c1ccc(Cl)cc1)c1ccccc1
2. Cc1nc2c(n1-c1ccccc1)C(=O)c1ccccc1C2=O
3. CCN(CC)C1Oc2cc3c(cc2C(c2cc(OC)c(OC)c(OC)c2)C1C)OCO3 (stereo unspecified)

a:
1: 1.56 µM; 2: > 100 µM; 3: > 40.6 µM

====

- System: MOLT-4 leukemia
- assay-summary: NCI tumour cell line growth inhibition, 48 h
observed-property: TGI (µM)
Numbers only, in µM.

Please review the entries below; each comes with its answer.
COc1ccc(C2SCC(=O)N2NC(=O)C(C)Oc2ccc(Cl)cc2Cl)cc1 (stereo not drawn)    94.6
CC12CC=CCC1CCC1C2CCC2(C)C(c3ccc(=O)oc3)CCC12O (stereo not drawn)    0.113
Clc1nc2c(C#Cc3ccccc3)ncnc2n1C1CCCCO1 (stereo not drawn)    51.2

Give TGI for each of the items listed below.
1. ClCc1ccc(C2OCCO2)cc1
2. CCCCN(CCCC)CCc1c(C)cc(C)c(CCN(CCCC)CCCC)c1O
3. CCN(CCCl)c1cccc(NC(=O)c2ccc(C(=O)Nc3cccc(CN(C)C)c3)cc2)c1

a:
45.6
10.8
1.15

Give TGI for each of the items listed below.
1. CC(C)(CN1CCCCC1)C(/C=C/c1ccccc1)=N\NC(=O)N/N=C(/C=C/c1ccccc1)C(C)(C)CN1CCCCC1
2. CCOC(=O)c1c2c(n(Cc3ccccc3)c1C)-c1nc(Cc3ccccc3)[nH]c1C(=O)C2=O
3. O=C(NCCCCCCO)c1cccc2cc3ccccc3nc12

a:
1: 4.02; 2: 5.41; 3: 58.5

====

- System: RXF-631 renal
- assay-summary: NCI tumour cell line growth inhibition, 48 h
I'd be grateful if you could share measured TGI for these entries.

O=c1cc(-c2ccccn2)[nH]c2cc(F)ccc12    > 100 µM
COC(=O)c1ccc(C(=O)OC)c2nc3cc(C)ccc3nc12    > 100 µM
COc1c(Sc2ccccc2)cc(Sc2ccccc2)c2cccnc12    > 100 µM
COc1cc(/C=C/c2ccc(OC)c(OC)c2OC)cc(OC)c1OC    51.2 µM

Give TGI for each of the items listed below.
1. COc1cc(C2c3cc4c(cc3[C@@H](N(C)C)[C@H]3COC(=O)C23)OCO4)cc(OC)c1O (stereo partly specified)
2. C/C(=N\NC(=S)N1CCN(c2ccccn2)CC1)c1nccs1

a:
1: > 100 µM; 2: 24.2 µM
